Target: D(1A) dopamine receptor (Homo sapiens)
Assay: D1 CRE-luciferase signal change, two-sided – cell-based, HEK293 D1, dopamine EC30, D1 allosteric modulator project, primary screen (AID 641)
Settings: dopamine EC30 potentiation, at 10 µM, actives deviate in either direction
The campaign covered roughly 58,000 compounds. About 3,400 (5.9%) were called active.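 Rule for the calls: active = luminescence count or its row- and column-corrected plate score outside the 99.7% band of the plate's sample wells, on either side; inactive = the rest.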 Only a selection was taken, and actives are over-represented in it overall.
Possible outcomes: yes (1) = active, no (0) = inactive

[[record]]
molecule = "Cc1ccc(-c2noc(CSc3nnnn3-c3ccccc3)n2)cc1"
measuredon = "D(1A) dopamine receptor (Homo sapiens)"
assignedlabel = "no (0)"

[[record]]
molecule = "CN(C)c1nc(N)nc(CSc2nnnn2-c2cccc3ccccc23)n1"
measuredon = "D(1A) dopamine receptor (Homo sapiens)"
assignedlabel = "yes (1)"

[[record]]
molecule = "Cn1nnnc1SCc1cc(=O)[nH]c2ccccc12"
measuredon = "D(1A) dopamine receptor (Homo sapiens)"
assignedlabel = "no (0)"

[[record]]
molecule = "Cc1ccc2c(c1)N(CC(=O)N1CCCc3ccccc31)C(=O)C(C)O2 (stereo unspecified)"
measuredon = "D(1A) dopamine receptor (Homo sapiens)"
assignedlabel = "no (0)"

[[record]]
molecule = "COc1ccc(Nc2oc(-c3ccccc3Cl)nc2C#N)cc1"
measuredon = "D(1A) dopamine receptor (Homo sapiens)"
assignedlabel = "yes (1)"

[[record]]
molecule = "CCOC(=O)CN1C(=O)C(O)(CC(=O)c2ccccn2)c2ccccc21 (stereo unspecified)"
measuredon = "D(1A) dopamine receptor (Homo sapiens)"
assignedlabel = "no (0)"


---

Molecular target: D(1A) dopamine receptor (Homo sapiens)
Assay: D1 CRE-luciferase signal change, two-sided – cell-based, HEK293 D1, dopamine EC30, D1 allosteric modulator project, primary screen (AID 641)
Conditions: dopamine EC30 potentiation, at 10 µM, actives deviate in either direction
Out of some 58,000 compounds screened, about 3,400 (5.9%) were called active.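 Rule for the calls: active = luminescence count or its row- and column-corrected plate score outside the 99.7% band of the plate's sample wells, on either side; inactive = the rest.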 The full list was thinned out, with actives kept by preference.
Possible outcomes: active, inactive

[[record]]
compound = "FC(F)(F)c1nnc2sc(-c3ccco3)nn12"
assignedlabel = "inactive"

[[record]]
compound = "Nc1c(C(=O)NCc2ccccc2)nnn1Cc1cccc(Cl)c1"
assignedlabel = "inactive"

[[record]]
compound = "O=C(c1cccs1)N(C(=O)c1cccs1)c1ccccn1"
assignedlabel = "inactive"

[[record]]
compound = "O=C(CSc1nnc(-c2cccs2)n1Cc1ccco1)c1ccc2c(c1)OCO2"
assignedlabel = "inactive"

[[record]]
compound = "Fc1c(F)c(C(F)(F)F)c(F)c(F)c1N1CCN(c2ccc3nnc(C(F)(F)F)n3n2)CC1"
assignedlabel = "inactive"

[[record]]
compound = "CC(C)n1c(C(O)c2ccccc2)nc2ccccc21 (configuration not stated)"
assignedlabel = "active"

[[record]]
compound = "Cc1cccc(NC(=O)c2ccc3ccccc3n2)n1"
assignedlabel = "inactive"

[[record]]
compound = "N#Cc1ccc(COC(=O)Cn2nnc(-c3ccccc3)n2)cc1"
assignedlabel = "inactive"

[[record]]
compound = "CCC/C(O)=C1\\C(=O)CC(C)(C)CC1=Nc1ccccc1OC"
assignedlabel = "inactive"

[[record]]
compound = "COc1ccc(N2CCN(CCNC(=O)CCN3C(=O)COc4ccccc43)CC2)cc1"
assignedlabel = "inactive"

[[record]]
compound = "CN(C)CCCNc1c2c(c(C#N)c3nc4ccccc4n13)CCC2"
assignedlabel = "inactive"

[[record]]
compound = "CS(=O)(=O)N(CC(=O)N1CCOCC1)c1ccc2c3c(cccc13)CC2"
assignedlabel = "inactive"

[[record]]
compound = "Cc1ccc(C(c2sc3nc(C)nn3c2O)N2CCN(c3ccccc3)CC2)cc1 (configuration not stated)"
assignedlabel = "active"

[[record]]
compound = "O=C(O)C1CC(=O)N(Cc2cccnc2)C1 (configuration not stated)"
assignedlabel = "inactive"

[[record]]
compound = "COC(=O)c1ccccc1NC(=O)C1CCN(S(=O)(=O)c2cc(OC)ccc2OC)CC1"
assignedlabel = "active"

[[record]]
compound = "O=C(Cn1nc(Cc2cccnc2)c2ccccc2c1=O)NCC1COc2ccccc2O1 (configuration not stated)"
assignedlabel = "inactive"

[[record]]
compound = "O=C(O)c1cc(S(=O)(=O)N2CCCCCC2)c(Cl)cc1Cl"
assignedlabel = "inactive"

[[record]]
compound = "N#Cc1c2c(c(N3CCN(CCO)CC3)n3c1nc1ccccc13)CCCC2"
assignedlabel = "active"

[[record]]
compound = "CCCc1nc(N)nc2c1C(=O)CC(C)(C)C2"
assignedlabel = "active"

[[record]]
compound = "O=C(CCN1C(=O)COc2ccccc21)NCCCN1CCN(c2ccc(F)cc2)CC1"
assignedlabel = "active"

[[record]]
compound = "CC1=C2C(=O)OC(c3ccoc3)C2(C)CCC1 (configuration not stated)"
assignedlabel = "inactive"

[[record]]
compound = "c1csc(-c2cn3c(n2)SCC3)c1"
assignedlabel = "inactive"

[[record]]
compound = "CC(=O)c1cccc(NC(=O)c2ccncc2)c1"
assignedlabel = "inactive"

[[record]]
compound = "CCc1ccc(-c2nnn(Cc3nn[nH]n3)n2)cc1"
assignedlabel = "inactive"

[[record]]
compound = "FC(F)(F)c1cc(-c2ccco2)nc(N2CCOCC2)n1"
assignedlabel = "active"

[[record]]
compound = "CC1Oc2ccccc2N(Cc2cccnc2)C1=O (configuration not stated)"
assignedlabel = "active"

[[record]]
compound = "O=C(Cn1cnc2c(cnn2-c2ccc(F)cc2)c1=O)NCCc1ccccc1"
assignedlabel = "inactive"

[[record]]
compound = "COc1ccccc1-c1nnc(SCC(=O)Nc2ccccc2)o1"
assignedlabel = "inactive"

[[record]]
compound = "CCOC(=O)c1cc(-c2ccc(Cl)s2)nc2c1c(C)nn2C"
assignedlabel = "inactive"

[[record]]
compound = "c1ccc(-c2noc(-c3cccs3)n2)nc1"
assignedlabel = "active"

[[record]]
compound = "COc1ccc(-c2nnn(CC(=O)N(CCO)C(C(=O)NC3CCCC3)c3ccc(F)cc3)n2)cc1 (configuration not stated)"
assignedlabel = "inactive"

[[record]]
compound = "Cc1cc(C)c2nc(N3CCCC3)c(C#N)cc2c1"
assignedlabel = "inactive"

[[record]]
compound = "COCCNC(=O)Cn1cc2c(n1)CCCCC2"
assignedlabel = "inactive"

[[record]]
compound = "CCCn1c(C(O)c2ccc(OCC)cc2)nc2ccccc21 (configuration not stated)"
assignedlabel = "inactive"

[[record]]
compound = "Cc1ccc(C(c2sc3nc(C)nn3c2O)N2CCN(c3ccc(F)cc3)CC2)cc1 (configuration not stated)"
assignedlabel = "inactive"

[[record]]
compound = "Cc1ccc(N(CC(O)CN2CCCC2)S(=O)(=O)c2ccccc2)cc1 (configuration not stated)"
assignedlabel = "inactive"

[[record]]
compound = "OC(COc1cccc2ccccc12)CN1CCN(c2ccccn2)CC1 (configuration not stated)"
assignedlabel = "active"

[[record]]
compound = "Cc1cc(=O)n2nc(N3CCCC3C(=O)NCCCN3CC(C)CC(C)C3)sc2n1 (configuration not stated)"
assignedlabel = "inactive"

[[record]]
compound = "C/C(=C\\C(=O)c1cccnc1)Nc1ccc(C)c(C)c1"
assignedlabel = "inactive"

[[record]]
compound = "CC(=O)Nc1ccc(S(=O)(=O)N2CCSCC2)cc1"
assignedlabel = "inactive"

[[record]]
compound = "CN=C1SC(C(=O)O)CC(=O)N1C (configuration not stated)"
assignedlabel = "inactive"

[[record]]
compound = "O=C(CSc1nc(-c2ccco2)cc(C(F)(F)F)n1)NCc1cccs1"
assignedlabel = "inactive"

[[record]]
compound = "COc1cccc(NC(=O)C2CCCN2C(=O)OCc2ccccc2)c1 (configuration not stated)"
assignedlabel = "inactive"

[[record]]
compound = "CCCc1nc(SCC(=O)Nc2ccccc2OC)c2c(=O)n(C)c(=O)n(C)c2n1"
assignedlabel = "inactive"

[[record]]
compound = "CCn1nnc(NC(=O)c2c(OC)cccc2OC)n1"
assignedlabel = "inactive"

[[record]]
compound = "COC(=O)CSC1=C(C#N)C(c2ccccc2OC)C(C(=O)OC)C(=O)N1 (configuration not stated)"
assignedlabel = "inactive"

[[record]]
compound = "c1csc(-c2nc(-c3ccncc3)no2)c1"
assignedlabel = "inactive"


---

Target: D(1A) dopamine receptor (Homo sapiens)
Assay: D1 CRE-luciferase signal change, two-sided – cell-based, HEK293 D1, dopamine EC30, D1 allosteric modulator project, primary screen (AID 641)
Details: dopamine EC30 potentiation, at 10 µM, actives deviate in either direction
Out of some 58,000 compounds screened, about 3,400 (5.9%) were called active.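 The calls were made as follows: active = luminescence count or its row- and column-corrected plate score outside the 99.7% band of the plate's sample wells, on either side; inactive = the rest.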 The entries come from a sample that favours actives as a whole.
Classes used: t = active, f = inactive

[[record]]
compound = "CCCC(=O)N(CCc1ccccc1)Cc1nc2ccccc2c(=O)[nH]1"
assignedlabel = "f"

[[record]]
compound = "COc1ccc(OC)c(Nc2nc(-c3ccc(O)c(O)c3)cs2)c1"
assignedlabel = "f"

[[record]]
compound = "CCN1CCN(C(=O)c2ccccc2N(C)S(=O)(=O)c2ccc(C)cc2)CC1"
assignedlabel = "f"

[[record]]
compound = "FC(F)Oc1ccccc1C1CC(c2ccc(Br)s2)Nc2ncnn21 (centres undefined)"
assignedlabel = "f"

[[record]]
compound = "COc1ccc(-c2nc(CS(=O)CC(=O)NCc3ccccn3)c(C)o2)cc1 (centres undefined)"
assignedlabel = "f"

[[record]]
compound = "O=C(CSc1nnc2ccccn12)c1ccccc1"
assignedlabel = "f"

[[record]]
compound = "COCCNc1nc(-n2nc(C)cc2C)nc2sc3c(c12)CCCC3"
assignedlabel = "f"

[[record]]
compound = "CCCNS(=O)(=O)c1ccc2c(c1)CCCN2C(C)=O"
assignedlabel = "f"

[[record]]
compound = "CC1C(c2ccccc2)=[N+]([O-])C2(CCCC2)N1O (centres undefined)"
assignedlabel = "f"

[[record]]
compound = "CCOc1ccccc1C1CC(c2ccccc2)Nc2nc(N)nn21 (centres undefined)"
assignedlabel = "t"

[[record]]
compound = "Cc1ccc(C2CC(c3cccc(C)c3)n3nc(N)nc3N2)cc1 (centres undefined)"
assignedlabel = "t"

[[record]]
compound = "O=C(O)CCCC(=O)Nc1ccccc1-n1ccnc1"
assignedlabel = "f"

[[record]]
compound = "Cc1cc(C)c2c(n1)nn1c(-n3ccnc3)cc(C)nc21"
assignedlabel = "t"

[[record]]
compound = "Cc1cc(C)n(-c2ccc(Cl)c(C(=O)O)n2)n1"
assignedlabel = "f"

[[record]]
compound = "CC(=O)N1CCc2cc(S(=O)(=O)Nc3ccccc3N3CCN(C)CC3)ccc21"
assignedlabel = "f"

[[record]]
compound = "COc1ccc(C2CC(c3ccc(Cl)cc3Cl)Nc3nc(N)nn32)cc1OC (centres undefined)"
assignedlabel = "f"

[[record]]
compound = "CC12CN3CC(C)(CN(C1)C3c1ccc(Cl)cc1Cl)C2=O (centres undefined)"
assignedlabel = "f"

[[record]]
compound = "CCOc1ccccc1C1CC(c2ccc(Cl)cc2)Nc2nc(N)nn21 (centres undefined)"
assignedlabel = "f"

[[record]]
compound = "CCCc1nc(-c2ccccc2O)n(-c2ccccc2)n1"
assignedlabel = "t"

[[record]]
compound = "Cc1ccc2c(c1)N(CCCC(=O)NCc1cccnc1)C(=O)CO2"
assignedlabel = "f"

[[record]]
compound = "CCCc1nc(N2CCN(C)CC2)c2sc(=S)n(-c3ccccc3)c2n1"
assignedlabel = "f"

[[record]]
compound = "c1ccc(Nc2nc(-c3ccncc3)cs2)nc1"
assignedlabel = "f"

[[record]]
compound = "O=C(c1ccco1)N(Cc1nc2ccccc2c(=O)[nH]1)C1CCCC1"
assignedlabel = "f"

[[record]]
compound = "CN(C)Cc1c(O)ccc2occ(C(O)c3ccccc3)c12 (centres undefined)"
assignedlabel = "f"

